# run-description: Physico-chemical properties of free fluorogens in aqueous solutions
# Format: physicochemical
# test-context: free fluorogen
Below, each of the molecules is paired with its reported λabs,neutral, wavelength of maximal absorption of the protonated state value.
assay-endpoint: λabs,neutral, wavelength of maximal absorption of the protonated state (nm)

- molecule: "Cc1cc(/C=C2\\SC(=S)NC2=O)c(C)cc1O"
  measured: 406
- molecule: "Cc1cc(C=C2SC(=S)NC2=O)ccc1O [HMBR, 4-hydroxy-3-methylbenzylidene rhodanine, reference compound]"
  measured: 401
- molecule: "COc1cc(/C=C2\\SC(=S)NC2=O)cc(OC)c1O"
  measured: 407
- molecule: "COc1cc(/C=C2\\SC(=S)NC2=O)ccc1O"
  measured: 403
- molecule: "Cc1cc(/C=C2\\SC(=S)NC2=O)cc(C)c1O"
  measured: 401

* * *

# system: FAST (Halorhodospira halophila, UniProt P16113, C69G/D97P/F96I/M100R/Q99S/T101G/T95M/Y94W/Y98T)
# Construct: His-tag; made in house; host or cells: Rosetta(DE3)pLysS E. coli
# Sequence (P16113 whole entry C69G/Y94W/T95M/F96I/D97P/Y98T/Q99S/M100R/T101G): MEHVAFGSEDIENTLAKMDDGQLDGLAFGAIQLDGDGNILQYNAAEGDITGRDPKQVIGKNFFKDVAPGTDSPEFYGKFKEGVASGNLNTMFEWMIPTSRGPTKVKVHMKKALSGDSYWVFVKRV
# run-description: Spectroscopic properties of FAST:fluorogen complexes in PBS pH 7.4 (absorption, emission, quantum yield)
# Type: physicochemical
# test-context: FAST:fluorogen complex
Measured red-shifted absorption relative to FAST:HMBR values are reported for all entries that follow.
assay-endpoint: red-shifted absorption relative to FAST:HMBR

- chem-smiles: "COc1cc(/C=C2\\SC(=S)NC2=O)ccc1O"
  measured: "15–20 nm"
- chem-smiles: "Cc1cc(/C=C2\\SC(=S)NC2=O)cc(C)c1O"
  measured: "15–20 nm"
- chem-smiles: "COc1cc(/C=C2\\SC(=S)NC2=O)cc(OC)c1O"
  measured: "40 nm"
- chem-smiles: "Cc1cc(/C=C2\\SC(=S)NC2=O)c(C)cc1O"
  measured: "15–20 nm"
- chem-smiles: "CCOc1cc(/C=C2\\SC(=S)NC2=O)ccc1O"
  measured: "15–20 nm"

* * *

Parameter: pKa. Scope: all listed entries.
# run-description: Physico-chemical properties of free fluorogens in aqueous solutions
# Assay type: physicochemical
# test-context: aqueous solution, free fluorogen, read-out: pKA, acidity constant
assay-endpoint: pKa

- molecule: "COc1cc(/C=C2\\SC(=S)NC2=O)cc(OC)c1O"
  measured: 8.3
- molecule: "Cc1cc(/C=C2\\SC(=S)NC2=O)cc(C)c1O"
  measured: 8.7
- molecule: "Cc1cc(/C=C2\\SC(=S)NC2=O)c(C)cc1O"
  measured: 8.7
- molecule: "Cc1cc(C=C2SC(=S)NC2=O)ccc1O [HMBR, 4-hydroxy-3-methylbenzylidene rhodanine, reference compound]"
  measured: 8.7
- molecule: "COc1cc(/C=C2\\SC(=S)NC2=O)ccc1O"
  measured: 8.3

* * *

# system: FAST (Halorhodospira halophila, UniProt P16113, C69G/D97P/F96I/M100R/Q99S/T101G/T95M/Y94W/Y98T)
# Construct: His-tag; made in house; host or cells: Rosetta(DE3)pLysS E. coli
# run-description: Spectroscopic properties of FAST:fluorogen complexes in PBS pH 7.4 (absorption, emission, quantum yield)
# Type: physicochemical
# test-context: PBS pH 7.4
Reported Δλ abs = λ abs,bound – λ abs,unbound, absorption red-shift upon FAST binding values follow for various compounds
assay-endpoint: Δλ abs = λ abs,bound – λ abs,unbound, absorption red-shift upon FAST binding (nm)

- chem-smiles: "CCc1cc(/C=C2\\SC(=S)NC2=O)ccc1O"
  unit-name: "nm"
  measured: 81
- chem-smiles: "CCOc1cc(/C=C2\\SC(=S)NC2=O)ccc1O"
  unit-name: "nm"
  measured: 94
- chem-smiles: "COc1cc(/C=C2\\SC(=S)NC2=O)ccc1O"
  unit-name: "nm"
  measured: 91
- chem-smiles: "COc1cc(/C=C2\\SC(=S)NC2=O)cc(OC)c1O"
  unit-name: "nm"
  measured: 112
- chem-smiles: "Cc1cc(/C=C2\\SC(=S)NC2=O)c(C)cc1O"
  unit-name: "nm"
  measured: 88
- chem-smiles: "Cc1cc(/C=C2\\SC(=S)NC2=O)cc(C)c1O"
  unit-name: "nm"
  measured: 98
